# TESTED TARGET: T1, ICAM1 on the surface of DU145 cells (human, UniProt P05362 28-532)
# T1 construct: whole, on cells
# T1 sequence (P05362 28-532): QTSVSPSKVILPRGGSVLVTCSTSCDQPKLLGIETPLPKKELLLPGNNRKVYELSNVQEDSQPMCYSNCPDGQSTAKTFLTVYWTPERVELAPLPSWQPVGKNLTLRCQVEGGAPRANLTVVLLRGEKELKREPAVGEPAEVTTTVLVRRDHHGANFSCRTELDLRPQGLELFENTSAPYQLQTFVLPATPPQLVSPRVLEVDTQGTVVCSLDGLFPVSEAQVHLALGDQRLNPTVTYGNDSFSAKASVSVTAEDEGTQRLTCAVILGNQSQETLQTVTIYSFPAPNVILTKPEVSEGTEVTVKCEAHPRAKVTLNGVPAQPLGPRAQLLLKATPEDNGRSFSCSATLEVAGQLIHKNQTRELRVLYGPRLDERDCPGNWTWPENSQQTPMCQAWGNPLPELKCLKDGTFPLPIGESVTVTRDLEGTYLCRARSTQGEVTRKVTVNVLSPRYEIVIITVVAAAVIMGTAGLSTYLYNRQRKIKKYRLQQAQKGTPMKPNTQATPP
# EXPERIMENTAL PROTOCOL: flow cytometry, DU145 cells;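 also: purified antibodies in dilution series bound to cells for 1 h at 4 °C, detected with a fluorescent secondary antibody (1 h, 4 °C, dark), read by flow cytometry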
ENDPOINT NAME: Max Binding MFI (MFI)
A number alone suffices; assume MFI.

Some binders with known Max Binding MFI results, for comparison:
{"BINDER": "14H1 (antibody, human IgG1, kappa, V domains shown, Rabbit-human chimeric anti-ICAM1: rabbit VH and VL on human IgG1 and kappa constant regions) VH: QSVEESGGRLVTPGTPLTLTCTVSGFSLSNYYMSWVRQAPGKGLEWIGIISDSGSTYYASWAKGRFTISKTSTTVDLSITSPTTEDTATYFCARDWSYDSTSGYYYYDMDLWGPGTLVTVSA VL: AYDMTQTPASVEVAVGGTVTIKCQASQSINSWLSWFHQKPGQPPKRLIYKASTLASGVSSRFKGSGSGTQFTLTISGVESADAATYYCQQGYSRSDGEHVFGGGTEVVVKR", "Max Binding MFI [MFI]": 4690}
{"BINDER": "2E3 (antibody, human IgG1, kappa, V domains shown, Rabbit-human chimeric anti-ICAM1: rabbit VH and VL on human IgG1 and kappa constant regions) VH: QSVEESGGGLVKPGGTLTLTCTVSGFSLSSYAMGWVRQAPGKGLEYIGIIGSSGSTYYASWAKGRFTISKTSTTVDLKITSPTTEDTATYFCVRDPYDSFGDGYRLWGPGTLVTVSS VL: AYDMTQTPASVEVAVGGTVTIKCQASENIYRYLLWYQQKLGQRPSLLIYDASKLASGVPSRFKGSGSGTEFTLTISGVQSDDAATYYCQQAYSSSNVDNAFGGGTEVVVKR", "Max Binding MFI [MFI]": 3980}

For the binder 14B3 (antibody, human IgG1, kappa, V domains shown, Rabbit-human chimeric anti-ICAM1: rabbit VH and VL on human IgG1 and kappa constant regions) VH: QSLEESGGDLVKPGASLTLTCTASGFSSSSGYYICWVRQAPGKGLEWIACIGAGSGAAYYASWAKGRFTMSKTSSTTVTLQMTSLTAADTATYFCARGGFVVGGGYGGYCFNLWGPGTLVTVSS VL: AQVLTQTASSVSATVGGTVTISCQSSESVDVNNLAWYQQKPGQPPKLLIYSASTLASGVPSRFKGSGSGTQFTLTVSDLESADAATYYCAGGYSGNIFAFGGGTAVVVKR , what Max Binding MFI is on record?
2940

For the binder 8B12 (antibody, human IgG1, kappa, V domains shown, Rabbit-human chimeric anti-ICAM1: rabbit VH and VL on human IgG1 and kappa constant regions) VH: QSVEESGGGLVKPGGTLTLTCTVSGFSLSTHAMGWVRQAPGKGLEYIGIIGSSDRTYYASWAKGRFTISKTSTTVDLKITSPTTEDTATYFCVRDPYDSFDDGYRLWGPGTLVTVSS VL: AYDMTQTPASVEVAVGGTVTIKCQASQSIYSYLSWYQQKPGQRPKFLIYDASKVASGVPSRFKGSGSGTEFTLTISAVQSDDAATYYCQQAYSSSNVDNAFGGGTEVMVKR , what Max Binding MFI is on record?
3750

For the binder 15D10 (antibody, human IgG1, kappa, V domains shown, Rabbit-human chimeric anti-ICAM1: rabbit VH and VL on human IgG1 and kappa constant regions) VH: QSVEESGGRLVTPGTPLTLTCTASGFSLNNYYMSWVRQAPGKGLEWIGIISDSDNTYYASWAKGRFTISKTSTTVDLKITSPTTEDTATYFCARDWSLDSSSGYYYYDMDLWGPGTLVTVSA VL: AYDMTQTPASMEVAVGGTVTIKCQASQNIHSWLAWFQQKPGQPPKRLIYKASTLASGVPSRFKGSGSGTQFTLTISGVQSDDAATYYCQQGYSRSDGEHVFGGGTEVVVKR , what Max Binding MFI is on record?
5000
